Biological target: Corticotropin-releasing factor receptor 2/Corticotropin-releasing factor-binding protein (Homo sapiens, UniProt P24387+Q13324)
Sequence (Q13324 whole entry): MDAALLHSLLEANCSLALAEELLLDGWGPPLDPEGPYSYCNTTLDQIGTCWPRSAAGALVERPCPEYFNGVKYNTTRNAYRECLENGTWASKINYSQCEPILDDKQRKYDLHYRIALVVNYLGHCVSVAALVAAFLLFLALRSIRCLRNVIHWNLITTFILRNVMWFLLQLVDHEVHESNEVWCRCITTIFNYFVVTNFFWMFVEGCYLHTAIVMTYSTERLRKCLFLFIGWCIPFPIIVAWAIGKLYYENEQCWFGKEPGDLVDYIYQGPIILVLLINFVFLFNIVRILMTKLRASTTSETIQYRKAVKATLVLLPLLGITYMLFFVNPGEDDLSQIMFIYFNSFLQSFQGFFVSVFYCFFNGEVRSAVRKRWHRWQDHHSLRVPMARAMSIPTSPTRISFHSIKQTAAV
Sequence (P24387 whole entry): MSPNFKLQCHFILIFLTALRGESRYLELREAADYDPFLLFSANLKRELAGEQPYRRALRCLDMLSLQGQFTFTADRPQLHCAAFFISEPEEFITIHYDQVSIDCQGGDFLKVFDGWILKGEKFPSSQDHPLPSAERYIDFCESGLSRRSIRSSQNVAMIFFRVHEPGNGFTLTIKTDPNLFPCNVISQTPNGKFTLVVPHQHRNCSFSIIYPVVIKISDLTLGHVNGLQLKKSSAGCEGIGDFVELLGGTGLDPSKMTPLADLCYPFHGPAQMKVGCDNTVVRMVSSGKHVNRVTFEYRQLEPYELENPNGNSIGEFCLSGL
Experiment: Dose Response confirmation of uHTS hits for small molecule antagonists of the CRF-binding protein and CRF-R2 receptor complex.
Format: functional
Settings: read-out: IC50_Mean
The source made the active and inactive calls.
Would you mind answering with one of these outcomes? class 1 (active), class 0 (inactive)

Answered examples (7):
                                   compound  label_value
0  CCc1nnc(NC(=O)CSc2nnnn2-c2cccc(C(C)=O)c2)s1      class 0
1  COCCN1CC(=O)N(c2cccc(C)c2C)C(c2ccc(Cl)cc2)C1=O (stereo not drawn)      class 0
2  CCc1ccc(-c2cc(C)no2)cc1S(=O)(=O)Nc1ccc(Cl)cn1      class 1
3  CCC(C)NC(=O)Cn1cnc2sc(C)c(S(=O)(=O)N3CCCCC3)c2c1=O (stereo not drawn)      class 0
4              COc1ccccc1/C=C/C(=O)N1CCOCC1      class 0
5  Cc1ccc(NC(=O)c2ncn(CCCNCC3CCCO3)n2)cc1C (stereo not drawn)      class 0
6      Cc1cccc(CSc2ccc3nnc(-c4cccs4)n3n2)c1      class 1

Okay, next one:
For this compound, state the assay outcome: CCCC1CC(C#N)N(N(C)C)C1=C(C#N)C#N (stereo not drawn)
class 0

====

Record form. Attribute: IC50. Fill in for each entry.
Biological target: Voltage-gated N-type calcium channel alpha-1B subunit/Amyloid beta A4 precursor protein-binding family A member 1 (Homo sapiens, UniProt Q00975+Q02410)
Sequence (Q00975 whole entry): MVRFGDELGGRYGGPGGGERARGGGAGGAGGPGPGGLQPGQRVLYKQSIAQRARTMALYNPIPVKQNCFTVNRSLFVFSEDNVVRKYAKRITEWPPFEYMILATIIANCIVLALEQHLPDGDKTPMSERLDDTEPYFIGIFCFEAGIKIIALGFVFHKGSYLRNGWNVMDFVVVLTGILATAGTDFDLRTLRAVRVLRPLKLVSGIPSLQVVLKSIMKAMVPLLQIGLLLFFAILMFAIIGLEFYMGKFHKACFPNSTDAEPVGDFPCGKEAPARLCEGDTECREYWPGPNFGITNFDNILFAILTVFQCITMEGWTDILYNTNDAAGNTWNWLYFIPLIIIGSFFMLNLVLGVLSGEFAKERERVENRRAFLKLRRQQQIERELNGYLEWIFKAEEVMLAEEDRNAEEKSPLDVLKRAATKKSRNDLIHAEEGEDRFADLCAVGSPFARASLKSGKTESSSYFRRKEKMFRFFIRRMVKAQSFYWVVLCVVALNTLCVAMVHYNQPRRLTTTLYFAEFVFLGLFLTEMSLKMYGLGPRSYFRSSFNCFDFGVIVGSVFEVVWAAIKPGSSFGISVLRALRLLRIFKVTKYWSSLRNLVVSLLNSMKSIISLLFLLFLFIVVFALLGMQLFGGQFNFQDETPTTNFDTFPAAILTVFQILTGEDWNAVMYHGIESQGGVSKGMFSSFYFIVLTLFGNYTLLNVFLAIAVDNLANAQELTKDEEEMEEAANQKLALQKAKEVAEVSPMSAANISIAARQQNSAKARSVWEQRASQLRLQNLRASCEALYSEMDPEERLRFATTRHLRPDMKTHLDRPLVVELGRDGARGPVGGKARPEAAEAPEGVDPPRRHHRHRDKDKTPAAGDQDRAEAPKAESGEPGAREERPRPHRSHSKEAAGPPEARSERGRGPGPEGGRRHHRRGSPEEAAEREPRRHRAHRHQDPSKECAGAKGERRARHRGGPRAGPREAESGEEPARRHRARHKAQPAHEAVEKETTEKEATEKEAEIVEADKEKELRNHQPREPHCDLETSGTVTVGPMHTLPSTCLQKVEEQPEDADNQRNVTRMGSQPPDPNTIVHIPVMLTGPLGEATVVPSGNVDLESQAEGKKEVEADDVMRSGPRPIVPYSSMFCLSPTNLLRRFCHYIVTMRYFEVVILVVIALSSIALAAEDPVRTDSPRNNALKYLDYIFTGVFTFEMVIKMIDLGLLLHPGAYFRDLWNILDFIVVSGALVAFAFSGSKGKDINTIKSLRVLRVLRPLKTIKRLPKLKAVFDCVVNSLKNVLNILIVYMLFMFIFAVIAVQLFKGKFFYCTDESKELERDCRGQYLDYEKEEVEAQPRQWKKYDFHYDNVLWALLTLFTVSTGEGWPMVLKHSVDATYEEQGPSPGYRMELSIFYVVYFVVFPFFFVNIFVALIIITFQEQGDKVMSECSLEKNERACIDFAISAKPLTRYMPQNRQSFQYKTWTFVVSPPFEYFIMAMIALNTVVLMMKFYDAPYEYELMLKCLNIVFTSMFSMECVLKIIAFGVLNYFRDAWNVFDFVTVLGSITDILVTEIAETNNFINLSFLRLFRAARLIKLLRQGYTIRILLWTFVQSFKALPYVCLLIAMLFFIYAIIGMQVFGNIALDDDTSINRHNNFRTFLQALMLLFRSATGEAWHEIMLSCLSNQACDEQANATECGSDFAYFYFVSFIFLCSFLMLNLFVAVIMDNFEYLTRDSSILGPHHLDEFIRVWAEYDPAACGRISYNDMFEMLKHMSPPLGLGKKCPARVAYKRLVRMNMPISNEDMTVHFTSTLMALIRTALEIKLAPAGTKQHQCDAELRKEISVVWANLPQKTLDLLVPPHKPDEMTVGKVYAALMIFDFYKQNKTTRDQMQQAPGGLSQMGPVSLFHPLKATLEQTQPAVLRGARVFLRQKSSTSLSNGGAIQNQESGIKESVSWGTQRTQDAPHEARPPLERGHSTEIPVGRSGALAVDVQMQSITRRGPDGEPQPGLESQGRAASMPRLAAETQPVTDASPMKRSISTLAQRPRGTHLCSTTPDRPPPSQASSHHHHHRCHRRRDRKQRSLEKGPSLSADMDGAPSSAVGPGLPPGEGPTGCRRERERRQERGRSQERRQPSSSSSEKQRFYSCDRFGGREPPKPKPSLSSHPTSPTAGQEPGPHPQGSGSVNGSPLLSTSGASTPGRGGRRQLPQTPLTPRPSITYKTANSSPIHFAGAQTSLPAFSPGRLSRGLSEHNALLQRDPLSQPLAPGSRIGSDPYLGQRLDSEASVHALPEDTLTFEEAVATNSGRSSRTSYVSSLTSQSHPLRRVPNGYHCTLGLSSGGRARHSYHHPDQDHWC
Sequence (Q02410 whole entry): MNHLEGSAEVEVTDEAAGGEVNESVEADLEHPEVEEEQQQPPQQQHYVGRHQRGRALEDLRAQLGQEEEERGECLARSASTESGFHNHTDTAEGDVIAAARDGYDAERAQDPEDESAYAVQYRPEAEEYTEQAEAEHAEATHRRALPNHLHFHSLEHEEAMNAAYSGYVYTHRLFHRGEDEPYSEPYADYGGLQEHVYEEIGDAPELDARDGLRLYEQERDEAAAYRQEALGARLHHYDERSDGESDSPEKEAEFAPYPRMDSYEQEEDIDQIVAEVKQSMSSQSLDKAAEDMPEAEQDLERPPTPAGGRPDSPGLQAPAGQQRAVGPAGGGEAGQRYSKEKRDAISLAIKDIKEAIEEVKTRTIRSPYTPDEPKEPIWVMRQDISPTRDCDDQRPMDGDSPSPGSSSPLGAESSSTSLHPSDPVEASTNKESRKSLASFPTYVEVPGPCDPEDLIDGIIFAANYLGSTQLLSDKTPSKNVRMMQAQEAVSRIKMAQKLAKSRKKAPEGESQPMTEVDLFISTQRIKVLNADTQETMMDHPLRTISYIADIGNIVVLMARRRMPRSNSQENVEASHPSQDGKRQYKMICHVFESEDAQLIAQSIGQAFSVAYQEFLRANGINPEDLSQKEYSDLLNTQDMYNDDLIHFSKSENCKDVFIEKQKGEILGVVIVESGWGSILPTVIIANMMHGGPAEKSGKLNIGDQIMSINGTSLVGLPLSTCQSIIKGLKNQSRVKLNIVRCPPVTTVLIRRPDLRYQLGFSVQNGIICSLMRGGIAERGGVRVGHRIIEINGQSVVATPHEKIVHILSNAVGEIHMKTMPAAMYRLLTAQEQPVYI
Format: protein assay
Active and inactive are the calls of the source.

Some solved entries appear below for comparison.
                                   compound      experimental_value
0  CC(=O)Oc1ccc(-c2ccc(C(=O)NCCc3ccc(S(N)(=O)=O)cc3)cc2)cc1        11.4 µM (active)
1  CCCC(C(=O)NC1CCCC1)N(C(=O)Cn1nnc(-c2ccc(C)o2)n1)C1CCCC1 (stereo unspecified)       0.221 µM (active)
2  CC(C)n1cc(/C=N/Nc2ccc(Cl)c(C(=O)O)c2)c2ccccc21        41.8 µM (active)
3  Cc1cc2oc(C(=O)Nc3ccc(S(N)(=O)=O)cc3)c(C)c2cc1Cl        6.72 µM (active)
4  NS(=O)(=O)c1ccc(-c2ccc(C=C3C(=O)c4ccccc4C3=O)o2)cc1  > 56.8 µM (not active)

Continue with the compound presented below.
IC50 reported for this compound Cc1ccc(-n2cccc2/C=C2\C(=N)N3N=C(c4ccco4)SC3=NC2=O)cc1 : 8.99 µM (active)

====

What EC50 was measured for each of the following?
Molecular target: UniProt Q9XUB2
Sequence (Q9XUB2 whole entry): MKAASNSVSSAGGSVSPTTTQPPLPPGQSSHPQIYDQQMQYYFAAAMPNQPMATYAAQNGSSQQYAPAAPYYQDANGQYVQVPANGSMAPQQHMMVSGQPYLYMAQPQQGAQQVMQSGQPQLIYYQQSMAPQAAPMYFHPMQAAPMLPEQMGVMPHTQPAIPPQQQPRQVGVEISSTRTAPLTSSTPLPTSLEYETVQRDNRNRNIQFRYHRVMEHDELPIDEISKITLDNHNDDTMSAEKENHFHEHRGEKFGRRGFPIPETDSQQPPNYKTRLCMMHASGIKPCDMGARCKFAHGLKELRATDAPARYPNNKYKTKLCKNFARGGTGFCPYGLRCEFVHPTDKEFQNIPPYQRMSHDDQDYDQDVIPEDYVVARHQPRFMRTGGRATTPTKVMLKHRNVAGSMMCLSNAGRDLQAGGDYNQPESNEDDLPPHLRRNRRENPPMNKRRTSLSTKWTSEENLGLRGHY
Experiment: potency of MEX-5 RNA-binding blockers – biochemical, C. elegans, fluorescence polarization, dose response (AID 1960)
Calls of active or inactive are those of the source.

Here are 7 molecules. What values of EC50 were reported for them?
1. CN1C(=O)/C(=C/C=C/c2ccco2)C(=O)NC1=S
2. O=c1c(O)cccc2cc(O)c(O)c(O)c12
3. Cc1cc(C=C2C(=O)N(C)C(=S)N(C)C2=O)c(C)n1C1CCCC1
4. COc1cc2c3nnc(-c4ccccc4)c-3cn(Cc3ccc(F)cc3)c2cc1OC
5. N#C/C(=N\Nc1ccc(Cl)cc1)C(=O)c1ccsc1
6. Cc1ccc(N=Nc2[nH]c3ccccc3c2O)cc1
7. Cc1ccccc1NC1=NC(=O)/C(=C/c2cccn2-c2cccc(C(=O)O)c2)S1

1: 37.5 µM (active); 2: 0.152 µM (active); 3: 129 µM (active); 4: > 300 µM (not active); 5: 10.8 µM (active); 6: 25.7 µM (inconclusive); 7: 70 µM (active)

// provenance: ChEMBL document CHEMBL1201862
